src = patent US10604509B2

# Test system: NQO1 specific enzyme activity in BEAS-2B cells
# assay_name: BEAS-2B NQO1 MTT assay
# Type: cell-based
# condition_label: Homo sapiens, BEAS-2B, 48 h, BEAS-2B cells, 48 hours with compound, MTT readout; read-out: EC50 of NQO1 specific activity induction
Counter-ions that a name gives are not always drawn.
# Lookup of reported EC50 keyed by entry

Recorded results for 3 compounds are shown here.
# compound, EC50
records = [
    ("CC[C@@H]1CN(Cc2cc([C@@H](c3ccc4c(nnn4C)c3C)[C@@H](C)C(=O)O)ccc2C)Cc2ccccc2O1 [Example 38, Formic Acid Salt]", "0.01 to 0.1 µM"),
    ("CCn1cc(CCC(c2ccc(C)c(CN3Cc4cccnc4OC(C)(C)C3)c2)C(C)(C)C(=O)O)nn1 (centres unmarked)", "0.001 to 0.01 µM"),
    ("Cc1ccc(C(CC(=O)O)c2ccc3c(nnn3C)c2C)cc1CN1CCCC1c1nnc(C(C)C)[nH]1 (centres unmarked)", "1 to 10 µM"),
]

Return EC50 for the following compound: CCC1CN(Cc2cc(C(c3ccc4c(nnn4C)c3C)C(C)(C)C(=O)O)ccc2C)CCC(C2CC2)O1 (centres unmarked)
0.1 to 1 µM

Complete the entry with EC50 for Cc1ccc(C(c2ccc3c(nnn3C)c2C)C(C)(C)C(=O)O)cc1Cn1ccnc1CC1CCCOCC1 (centres unmarked)
0.01 to 0.1 µM

Please report the measured EC50 for "CCn1nnc2c(C)c([C@H](c3ccc(C)c(CN4Cc5cnccc5OC(C)(C)C4)c3)[C@@H](C)C(=O)O)cc(Cl)c21"
0.001 to 0.01 µM

Query EC50 for Cc1ccc([C@H](CC(=O)O)c2ccc3c(nnn3C)c2C)cc1CN1CCCC(Cn2cccn2)C1 (some centres unmarked)
1 to 10 µM

Please report EC50 for the following compound: Cc1cc2c(cn1)CN(Cc1cc(C(CC(=O)O)c3ccc4c(nnn4C)c3C)ccc1C)CC(C)(C)O2 (centres unmarked) [Example 108, Formic Acid Salt]
1 to 10 µM

Using the record for Cc1ccc(C(c2ccc3c(nnn3C)c2C)C(C)(C)C(=O)O)cc1Cn1ccnc1CN1CCCOCC1 (centres unmarked) , state its measured EC50.
1 to 10 µM

Answer with reported EC50 of "Cc1ccc2c(c1)CN(Cc1cc([C@@H](CC(=O)O)c3ccc4c(nnn4C)c3C)ccc1C)CC(C)(C)O2"
0.01 to 0.1 µM

In one line, give reported EC50 of the entry CC[C@@H]1CN(Cc2cc(C(CC(=O)O)c3ccc4c(c3)nnn4C)ccc2C)Cc2ccccc2O1 (some centres unmarked) .
0.1 to 1 µM

Tell me measured EC50 for "CC[C@@H]1CN(Cc2cc([C@@H](c3ccc4c(nnn4C)c3C)C(C)(C)C(=O)O)ccc2C)Cc2c(ccnc2F)O1" please.
< 0.001 µM

Please give measured EC50 of the following entry: CCC1CCC(Cc2nccn2Cc2cc(C(CC(=O)O)c3ccc4c(nnn4C)c3C)ccc2C)CC1 (centres unmarked)
1 to 10 µM

Tell me EC50 reported for Cc1ccc(C(CC(=O)O)c2ccc3c(nnn3C)c2C)cc1CN1Cc2ccc(C#N)cc2OC(C)(C)C1 (single isomer, unassigned)
0.01 to 0.1 µM
